// PIK3CG (human) (UniProt P48736) IC50 records

Reference set, count: 2
C[C@H](NC(=O)c1c(N)nn2cccnc12)c1cc2cccc(C#CCCNC(=O)[C@@H]3CCC(=O)O3)c2c(=O)n1-c1ccccc1: 100 to 1000 nM
C[C@H](NC(=O)c1c(N)nn2cccnc12)c1cc2cccc(-c3ccc(=O)n(C)c3)c2c(=O)n1-c1ccccc1: < 100 nM

# return IC50 for C[C@H](NC(=O)c1c(N)nn2cccnc12)c1cc2cccc(C#CCNC(=O)C3CCC(=O)C3)c2c(=O)n1-c1ccccc1 (stereo partly specified) , test system: PIK3CG (human) (UniProt P48736)
# Sequence (P48736 whole entry, looked up): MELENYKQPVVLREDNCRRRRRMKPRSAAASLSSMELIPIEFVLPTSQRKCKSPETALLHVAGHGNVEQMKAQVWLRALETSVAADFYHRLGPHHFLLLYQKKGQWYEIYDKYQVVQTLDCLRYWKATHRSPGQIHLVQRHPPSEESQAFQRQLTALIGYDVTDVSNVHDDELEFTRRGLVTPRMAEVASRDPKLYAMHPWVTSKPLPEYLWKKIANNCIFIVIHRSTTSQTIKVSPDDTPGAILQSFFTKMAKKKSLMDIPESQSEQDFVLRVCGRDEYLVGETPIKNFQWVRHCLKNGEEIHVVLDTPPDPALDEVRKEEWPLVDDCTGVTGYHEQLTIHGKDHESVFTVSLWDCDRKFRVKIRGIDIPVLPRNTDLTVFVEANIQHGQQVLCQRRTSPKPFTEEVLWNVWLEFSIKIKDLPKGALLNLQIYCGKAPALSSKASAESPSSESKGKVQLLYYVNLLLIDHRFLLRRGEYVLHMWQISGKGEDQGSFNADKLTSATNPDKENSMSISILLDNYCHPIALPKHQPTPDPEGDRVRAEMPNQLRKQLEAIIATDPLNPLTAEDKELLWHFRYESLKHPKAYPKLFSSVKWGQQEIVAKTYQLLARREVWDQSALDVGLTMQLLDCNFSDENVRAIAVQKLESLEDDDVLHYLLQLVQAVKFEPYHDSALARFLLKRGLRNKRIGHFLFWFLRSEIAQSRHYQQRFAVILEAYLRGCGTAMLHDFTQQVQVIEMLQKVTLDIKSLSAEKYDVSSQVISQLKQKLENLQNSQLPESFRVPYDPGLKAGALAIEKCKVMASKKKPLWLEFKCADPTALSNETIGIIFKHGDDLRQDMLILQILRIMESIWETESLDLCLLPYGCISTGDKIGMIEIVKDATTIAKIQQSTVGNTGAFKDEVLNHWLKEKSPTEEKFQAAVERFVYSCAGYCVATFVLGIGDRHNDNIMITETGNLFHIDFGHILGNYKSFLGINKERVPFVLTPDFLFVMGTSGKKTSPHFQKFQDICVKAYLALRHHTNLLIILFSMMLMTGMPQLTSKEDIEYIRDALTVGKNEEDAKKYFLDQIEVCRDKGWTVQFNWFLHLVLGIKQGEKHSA
< 100 nM

# return IC50 for "CC(=O)Nc1ncc(-c2cccc(NS(C)(=O)=O)c2)nc1C(=O)N[C@@H](C)c1cc2cccc(Cl)c2c(=O)n1C" , test system: PIK3CG (human) (UniProt P48736)
≥ 10000 nM

# return IC50 for "C[C@H](NC(=O)c1c(N)nn2cccnc12)c1cc2cccc(Cl)c2c(=O)n1-c1cccc(F)c1" , test system: PIK3CG (human) (UniProt P48736)
< 100 nM

# return IC50 for "C[C@H](NC(=O)c1c(N)nn2cccnc12)c1cc2cccc(C#CCCN)c2c(=O)n1-c1ccccc1" , test system: PIK3CG (human) (UniProt P48736)
100 to 1000 nM

# return IC50 for "COc1cc(-c2cccc3nc([C@H](C)NC(=O)c4c(N)nn5cccnc45)n(-c4ccccc4)c(=O)c23)ccn1" , test system: PIK3CG (human) (UniProt P48736)
< 100 nM

# return IC50 for "C[C@H](NC(=O)c1c(N)nn2cccnc12)c1cc2cccc(Cl)c2c(=O)n1C1CC1" , test system: PIK3CG (human) (UniProt P48736)
100 to 1000 nM

# return IC50 for "C[C@H](NC(=O)c1c(N)nn2cccnc12)c1cc2cccc(-c3cccnc3)c2c(=O)n1-c1ccccc1" , test system: PIK3CG (human) (UniProt P48736)
100 to 1000 nM
